molecular target: UniProtKB P51812; assay: Inhibition of human RSK2 in presence of ATP by cellular assay
Sequence (P51812 whole entry): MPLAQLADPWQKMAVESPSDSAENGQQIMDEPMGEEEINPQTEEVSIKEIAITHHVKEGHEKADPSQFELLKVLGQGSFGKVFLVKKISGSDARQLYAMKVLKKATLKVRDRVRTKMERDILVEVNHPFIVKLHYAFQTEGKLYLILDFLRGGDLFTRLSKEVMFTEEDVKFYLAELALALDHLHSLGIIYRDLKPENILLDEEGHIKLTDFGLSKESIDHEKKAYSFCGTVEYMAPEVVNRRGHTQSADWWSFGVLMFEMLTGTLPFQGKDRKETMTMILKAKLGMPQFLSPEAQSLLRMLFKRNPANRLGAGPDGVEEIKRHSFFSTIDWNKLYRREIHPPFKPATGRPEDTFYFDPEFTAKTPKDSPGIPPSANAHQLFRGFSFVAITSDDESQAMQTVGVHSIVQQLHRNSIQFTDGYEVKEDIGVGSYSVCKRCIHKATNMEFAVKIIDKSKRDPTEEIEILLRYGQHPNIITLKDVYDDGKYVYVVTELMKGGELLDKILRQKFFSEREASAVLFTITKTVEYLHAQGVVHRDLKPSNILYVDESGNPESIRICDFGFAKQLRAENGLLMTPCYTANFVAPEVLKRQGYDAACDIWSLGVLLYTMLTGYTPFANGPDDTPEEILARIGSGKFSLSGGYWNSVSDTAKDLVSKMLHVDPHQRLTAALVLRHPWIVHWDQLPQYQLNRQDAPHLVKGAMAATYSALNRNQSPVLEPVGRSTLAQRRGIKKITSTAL
metric.name: IC50 (nM)
Kindly answer with a numeric value in nM, unit omitted.

Task item: // Input: Cc1nc(Nc2n[nH]c3c2CN(C(=O)N[C@H](CN(C)C)c2ccccc2)C3(C)C)c2sccc2n1 . Output its IC50 only.
Reply: 171

###

target: Tyrosine-protein kinase Fyn (Homo sapiens); assay: Inhibition of human FYN in presence of ATP by cellular assay
Sequence (P06241 whole entry): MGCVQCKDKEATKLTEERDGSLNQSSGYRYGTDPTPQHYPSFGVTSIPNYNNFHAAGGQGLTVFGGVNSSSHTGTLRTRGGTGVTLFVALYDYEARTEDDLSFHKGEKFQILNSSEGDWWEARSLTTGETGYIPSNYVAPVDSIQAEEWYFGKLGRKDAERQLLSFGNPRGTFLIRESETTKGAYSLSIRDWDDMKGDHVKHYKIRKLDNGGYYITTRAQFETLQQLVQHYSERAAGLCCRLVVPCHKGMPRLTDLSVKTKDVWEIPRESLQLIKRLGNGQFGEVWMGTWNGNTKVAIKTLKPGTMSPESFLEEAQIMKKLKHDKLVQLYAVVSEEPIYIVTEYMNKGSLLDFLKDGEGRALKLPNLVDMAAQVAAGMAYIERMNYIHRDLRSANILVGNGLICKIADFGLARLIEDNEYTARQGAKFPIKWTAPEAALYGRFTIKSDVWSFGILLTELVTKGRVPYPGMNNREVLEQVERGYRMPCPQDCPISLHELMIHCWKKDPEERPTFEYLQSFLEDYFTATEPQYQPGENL
metric.name: IC50 (nM)
Respond numerically; units are nM and should not be typed.

Task item: Report measured IC50 on Tyrosine-protein kinase Fyn (Homo sapiens); entry: Cc1nc(Nc2n[nH]c3c2CN(C(=O)N[C@H](CN(C)C)c2ccccc2)C3(C)C)c2sccc2n1 [PF-03758309]
Reply: 1090

###

molecular target: Tyrosine-protein kinase Fgr (Homo sapiens, UniProt P09769); assay: Inhibition of human FGR in presence of ATP by cellular assay
Sequence (P09769 whole entry): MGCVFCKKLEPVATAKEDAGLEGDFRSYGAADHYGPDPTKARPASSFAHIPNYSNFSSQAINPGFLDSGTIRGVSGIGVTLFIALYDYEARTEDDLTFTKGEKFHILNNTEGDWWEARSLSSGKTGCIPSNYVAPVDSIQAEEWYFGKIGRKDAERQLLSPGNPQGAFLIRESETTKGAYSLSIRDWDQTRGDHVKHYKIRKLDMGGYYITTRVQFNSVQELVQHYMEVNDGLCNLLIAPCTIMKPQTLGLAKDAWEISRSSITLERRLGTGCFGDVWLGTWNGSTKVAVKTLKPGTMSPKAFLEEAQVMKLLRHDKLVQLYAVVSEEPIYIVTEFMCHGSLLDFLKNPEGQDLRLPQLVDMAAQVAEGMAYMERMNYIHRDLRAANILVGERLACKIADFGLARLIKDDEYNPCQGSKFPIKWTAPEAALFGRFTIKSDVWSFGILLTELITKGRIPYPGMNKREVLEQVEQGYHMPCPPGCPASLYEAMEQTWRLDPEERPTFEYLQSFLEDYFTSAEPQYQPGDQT
metric.name: IC50 (µM)
Numbers only; they are read as µM.

Task item: Give IC50 for Cc1nc(Nc2n[nH]c3c2CN(C(=O)N[C@H](CN(C)C)c2ccccc2)C3(C)C)c2sccc2n1
Reply: 4.68

###

molecular target: Proto-oncogene tyrosine-protein kinase Src (Homo sapiens); assay: Inhibition of human SRC in presence of ATP by cellular assay
Sequence (P12931 2-536 limits assumed): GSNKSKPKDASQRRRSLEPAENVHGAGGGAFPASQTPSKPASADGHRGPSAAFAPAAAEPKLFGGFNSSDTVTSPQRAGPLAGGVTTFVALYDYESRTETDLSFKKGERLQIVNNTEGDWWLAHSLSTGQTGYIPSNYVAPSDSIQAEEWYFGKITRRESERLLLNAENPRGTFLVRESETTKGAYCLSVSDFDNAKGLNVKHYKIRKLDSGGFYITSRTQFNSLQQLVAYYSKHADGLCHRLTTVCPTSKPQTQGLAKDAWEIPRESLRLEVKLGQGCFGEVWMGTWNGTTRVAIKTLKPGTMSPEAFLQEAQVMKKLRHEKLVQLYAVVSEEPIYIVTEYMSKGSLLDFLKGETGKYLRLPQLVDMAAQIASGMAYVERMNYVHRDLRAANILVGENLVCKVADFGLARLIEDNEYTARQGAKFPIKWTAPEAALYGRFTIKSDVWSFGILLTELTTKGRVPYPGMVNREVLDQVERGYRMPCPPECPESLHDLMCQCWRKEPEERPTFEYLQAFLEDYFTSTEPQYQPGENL
metric.name: pIC50
pIC50 (log units): -log10 of the concentration in mol/L.

Task item: Entry Cc1nc(Nc2n[nH]c3c2CN(C(=O)N[C@H](CN(C)C)c2ccccc2)C3(C)C)c2sccc2n1 needs its pIC50 filled in; supply it.
Reply: 5.66

###

experiment: Antiproliferative activity against human PaTu 8902 cells assessed as inhibition of cell proliferation incubated for 3 days by CellTiter-Glo Luminescent Cell Viability Assay; type: functional, cell-based; details: PaTu 8902, 72 h
metric.name: IC50 (nM)
Unit nM implied. Number only.

Task item: Complete the entry with IC50 for Cc1nc(Nc2n[nH]c3c2CN(C(=O)N[C@H](CN(C)C)c2ccccc2)C3(C)C)c2sccc2n1
Reply: 27

###

molecular target: AMP-activated protein kinase (AMPK) alpha-1/beta-1/gamma-1 (Homo sapiens, UniProt P54619+Q13131+Q9Y478); assay: Inhibition of human AMPK alpha1/beta1/gamma1 in presence of ATP; format: protein-complex assay
Sequence (P54619 whole entry): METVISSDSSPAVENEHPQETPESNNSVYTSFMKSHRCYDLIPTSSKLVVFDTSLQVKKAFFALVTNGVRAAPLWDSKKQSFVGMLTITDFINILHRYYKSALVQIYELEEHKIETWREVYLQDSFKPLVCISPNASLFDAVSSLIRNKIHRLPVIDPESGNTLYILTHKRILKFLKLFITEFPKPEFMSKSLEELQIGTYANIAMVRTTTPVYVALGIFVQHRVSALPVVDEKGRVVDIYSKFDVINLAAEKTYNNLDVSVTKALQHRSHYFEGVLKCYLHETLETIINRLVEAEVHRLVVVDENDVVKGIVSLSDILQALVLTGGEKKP
Sequence (Q9Y478 whole entry): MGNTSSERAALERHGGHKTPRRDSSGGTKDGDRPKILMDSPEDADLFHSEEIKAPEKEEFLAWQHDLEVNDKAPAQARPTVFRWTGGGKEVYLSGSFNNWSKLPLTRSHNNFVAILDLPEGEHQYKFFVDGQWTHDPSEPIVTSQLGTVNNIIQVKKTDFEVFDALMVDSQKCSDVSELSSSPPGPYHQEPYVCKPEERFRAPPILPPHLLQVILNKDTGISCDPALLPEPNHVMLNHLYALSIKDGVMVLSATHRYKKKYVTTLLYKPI
Sequence (Q13131 whole entry): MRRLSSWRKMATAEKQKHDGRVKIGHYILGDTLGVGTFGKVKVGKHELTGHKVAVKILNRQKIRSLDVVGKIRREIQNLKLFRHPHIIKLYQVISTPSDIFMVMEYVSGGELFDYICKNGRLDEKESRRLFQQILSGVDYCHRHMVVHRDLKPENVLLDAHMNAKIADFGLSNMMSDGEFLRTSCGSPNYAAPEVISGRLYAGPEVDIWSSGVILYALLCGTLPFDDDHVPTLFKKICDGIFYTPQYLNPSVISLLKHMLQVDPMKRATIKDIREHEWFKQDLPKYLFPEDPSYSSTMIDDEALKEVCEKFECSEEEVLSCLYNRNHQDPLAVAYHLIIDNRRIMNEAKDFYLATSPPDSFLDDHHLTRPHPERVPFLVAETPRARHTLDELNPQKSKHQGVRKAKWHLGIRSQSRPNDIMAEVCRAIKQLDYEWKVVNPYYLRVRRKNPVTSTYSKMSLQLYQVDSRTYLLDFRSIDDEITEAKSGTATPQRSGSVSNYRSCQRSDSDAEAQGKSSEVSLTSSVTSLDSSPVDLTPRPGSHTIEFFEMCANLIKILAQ
metric.name: pIC50
# pIC50 = -log10(concentration in molar units)

Task item: Consider the compound Cc1nc(Nc2n[nH]c3c2CN(C(=O)N[C@H](CN(C)C)c2ccccc2)C3(C)C)c2sccc2n1 and give its recorded pIC50.
Reply: 9.00

###

test system: NCI-H1838; test: Antiproliferative activity against human NCI-H1838 cells assessed as inhibition of cell proliferation incubated for 3 days by CellTiter-Glo Luminescent Cell Viability Assay; assay type: functional, cell-based; details: NCI-H1838, 72 h
metric.name: pIC50
# pIC50 is unitless: minus log10 of the molar concentration; print number only

Task item: Output measured pIC50 for this item: Cc1nc(Nc2n[nH]c3c2CN(C(=O)N[C@H](CN(C)C)c2ccccc2)C3(C)C)c2sccc2n1 [PF-03758309]
Reply: 8.26

###

target: Protein kinase C theta type (Homo sapiens); assay: Inhibition of human PKCtheta in presence of ATP by cellular assay
Sequence (Q04759 whole entry): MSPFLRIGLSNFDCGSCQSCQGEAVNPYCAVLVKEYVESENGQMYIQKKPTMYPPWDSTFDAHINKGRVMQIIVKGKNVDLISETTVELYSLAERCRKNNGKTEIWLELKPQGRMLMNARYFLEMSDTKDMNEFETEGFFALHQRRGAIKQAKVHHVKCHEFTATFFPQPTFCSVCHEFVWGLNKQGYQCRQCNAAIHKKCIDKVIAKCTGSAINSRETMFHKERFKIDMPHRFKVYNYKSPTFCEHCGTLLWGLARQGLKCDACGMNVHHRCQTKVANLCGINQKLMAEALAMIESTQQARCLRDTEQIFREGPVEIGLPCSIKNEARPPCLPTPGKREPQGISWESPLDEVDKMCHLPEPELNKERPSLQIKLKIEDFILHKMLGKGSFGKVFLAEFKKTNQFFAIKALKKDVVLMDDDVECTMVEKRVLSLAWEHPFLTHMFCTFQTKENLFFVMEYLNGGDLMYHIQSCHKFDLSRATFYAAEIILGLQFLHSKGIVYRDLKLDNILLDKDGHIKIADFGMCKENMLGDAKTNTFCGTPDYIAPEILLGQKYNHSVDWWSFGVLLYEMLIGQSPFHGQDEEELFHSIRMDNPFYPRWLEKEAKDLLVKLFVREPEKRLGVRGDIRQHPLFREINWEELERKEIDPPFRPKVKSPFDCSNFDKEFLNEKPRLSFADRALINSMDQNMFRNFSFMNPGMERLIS
metric.name: IC50 (nM)
Enter your answer as a number in nM; do not include the unit.

Task item: Please report IC50 for the following compound: Cc1nc(Nc2n[nH]c3c2CN(C(=O)N[C@H](CN(C)C)c2ccccc2)C3(C)C)c2sccc2n1 [PF-03758309]
Reply: 568
